Biological target: T1, soluble human IL-6 receptor (human, UniProt P08887 20-357)
T1 construct: also called hsIL-6R
T1 sequence: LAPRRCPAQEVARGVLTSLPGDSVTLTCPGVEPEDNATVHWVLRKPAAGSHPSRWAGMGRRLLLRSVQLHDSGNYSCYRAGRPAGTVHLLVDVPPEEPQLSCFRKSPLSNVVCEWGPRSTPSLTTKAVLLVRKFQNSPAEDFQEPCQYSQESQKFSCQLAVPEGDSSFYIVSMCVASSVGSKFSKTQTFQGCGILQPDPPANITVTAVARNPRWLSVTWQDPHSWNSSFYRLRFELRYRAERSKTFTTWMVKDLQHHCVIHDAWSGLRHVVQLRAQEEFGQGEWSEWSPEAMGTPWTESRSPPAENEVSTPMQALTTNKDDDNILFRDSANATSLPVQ
Assay: SPR (Biacore T100), antibody captured via protein A/G on a CM5 chip, human IL-6 receptor injected for 3 min, 1.2 mM CaCl2, pH 7.4, 37 C
MEASURED QUANTITY: binding result

BINDER	RECORDED VALUE
6RC1IgG_019 (antibody, V domains shown) VH: EVQLVQSGAEVKKPGSSVKVSCKASGGTFSSYAISWVRQAPGQGLEWMGGIIPIFGTANYAQKFQGRVTITADESTSTAYMELSSLRSEDTAVYYCARDRGSGFNWGNYAFDIWGQGFSVTVSS VL: DIQMTQSPSSLSASVGDRVTITCRASQSIEDDLAWYQQKPGKAPKLLIYEASNLQSGVPSRFSGSGSGTDFTLTISSLQPEDFATYYCQQYDRYPYTFGQGTKVEIKR	binds
Tocilizumab (antibody, human IgG1, kappa, V domains shown, also called anti-IL-6R antibody (tocilizumab); control antibody) VH: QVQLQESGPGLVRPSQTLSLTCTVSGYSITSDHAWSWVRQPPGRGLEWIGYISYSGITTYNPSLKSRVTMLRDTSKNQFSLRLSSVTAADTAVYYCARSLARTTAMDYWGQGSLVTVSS VL: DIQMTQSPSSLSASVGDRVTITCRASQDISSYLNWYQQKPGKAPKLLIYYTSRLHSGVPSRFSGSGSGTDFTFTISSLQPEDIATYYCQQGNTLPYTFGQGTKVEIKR	binds
6RC1IgG_012 (antibody, V domains shown) VH: QVQLVQSGAEVKKPGASVKVSCKASGYTFTSYGISWVRQAPGQGLEWMGWISAYNGNTNYAQKLQGRVTMTTDTSTSTAYMELRSLRSDDTAVYYCARATYYYDSSAPAFDIWGQGTMVTVSS VL: DIQMTQSPSSLSASVGDRVTITCRASQSIEDDLAWYQQKPGKAPKLLIYEASTLQSGVPSRFSGSGSGTDFTLTISSLQPEDFATYYCQQHDDSPLTFGQGTKVEIKR	binds
